The measurements presented in this section are drawn from patent US12679822B2.

target: BaF3 cell lines stably transfected with kinase EGFR L858R (Homo sapiens, UniProt P00533, L858R, cells depend on it); assay: Growth inhibition of BaF3 cell line stably transfected with kinase EGFR L858R (MTS); assay type: cell-based; conditions: 48 h, read-out: growth inhibitory activity IC50, L858R
Sequence (P00533 whole entry L858R): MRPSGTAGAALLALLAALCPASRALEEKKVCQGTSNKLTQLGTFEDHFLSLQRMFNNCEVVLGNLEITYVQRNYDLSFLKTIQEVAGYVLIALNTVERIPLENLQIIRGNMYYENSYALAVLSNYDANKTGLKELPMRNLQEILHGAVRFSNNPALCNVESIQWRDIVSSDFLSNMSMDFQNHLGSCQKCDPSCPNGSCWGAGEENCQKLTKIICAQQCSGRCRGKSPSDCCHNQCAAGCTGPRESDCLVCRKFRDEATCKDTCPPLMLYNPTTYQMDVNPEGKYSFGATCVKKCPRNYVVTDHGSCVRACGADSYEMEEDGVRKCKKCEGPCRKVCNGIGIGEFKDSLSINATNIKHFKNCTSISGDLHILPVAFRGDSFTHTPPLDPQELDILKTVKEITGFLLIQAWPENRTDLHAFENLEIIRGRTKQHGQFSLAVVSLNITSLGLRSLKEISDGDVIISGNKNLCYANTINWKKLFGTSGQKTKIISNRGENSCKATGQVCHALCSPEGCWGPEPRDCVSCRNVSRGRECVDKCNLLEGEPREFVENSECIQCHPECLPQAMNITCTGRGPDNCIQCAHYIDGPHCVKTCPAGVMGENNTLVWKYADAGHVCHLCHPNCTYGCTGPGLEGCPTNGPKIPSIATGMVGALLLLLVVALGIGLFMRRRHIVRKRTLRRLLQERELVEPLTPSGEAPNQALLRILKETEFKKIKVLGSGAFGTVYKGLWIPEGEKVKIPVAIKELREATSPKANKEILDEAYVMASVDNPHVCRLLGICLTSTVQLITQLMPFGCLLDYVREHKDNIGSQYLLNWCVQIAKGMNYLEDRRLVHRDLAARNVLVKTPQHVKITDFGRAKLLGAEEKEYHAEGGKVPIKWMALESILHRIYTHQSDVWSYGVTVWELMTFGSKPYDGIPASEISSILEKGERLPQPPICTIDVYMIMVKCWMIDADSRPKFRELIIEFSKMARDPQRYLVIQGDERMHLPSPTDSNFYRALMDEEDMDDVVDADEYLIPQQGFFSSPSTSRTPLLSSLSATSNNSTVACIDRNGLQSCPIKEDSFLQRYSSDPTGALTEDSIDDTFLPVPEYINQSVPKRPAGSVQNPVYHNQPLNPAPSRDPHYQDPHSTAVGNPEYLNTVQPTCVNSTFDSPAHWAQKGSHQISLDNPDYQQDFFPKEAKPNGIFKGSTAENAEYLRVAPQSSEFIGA
valueType: GI50

Which GI50 reading was recorded for the compound C=Cc1cnc(Nc2cc(CC3CC3)c(N3CCC(N4CCN(C)CC4)CC3)cc2OC)nc1Nc1ccc2nccnc2c1N(C)S(C)(=O)=O ?
≤ 50 nM

Quick one: GI50 for C=C(C)c1cnc(Nc2cc[nH]n2)nc1Nc1ccc2nccnc2c1N(C)S(C)(=O)=O ?
50 to 500 nM

Further cases:
Recorded GI50 for C=Cc1cnc(Nc2cc(C)c(N3CCC(N4CCN(C)CC4)CC3)cc2OC)nc1Nc1ccc2nccnc2c1NS(=O)(=O)C(C)C , please?
50 to 500 nM

Which GI50 value is on record for C=Cc1cnc(Nc2cc(CC)c(N3CCC(N4CCN(C)CC4)CC3)cc2OC(F)(F)F)nc1Nc1ccc2nccnc2c1S(C)(=O)=O ?
500 to 2500 nM

Look up GI50 for this compound: C=Cc1cnc(Nc2cc(CC)c(N3CCC(N4CCN(C)CC4)CC3)cc2OC(F)(F)F)nc1Nc1ccc2nccnc2c1NS(C)(=O)=O
50 to 500 nM

# input compound: C=Cc1cnc(Nc2cc(C(C)C)c(N3CCC(N4CCN(C)CC4)CC3)cc2OC)nc1Nc1ccc2nccnc2c1S(=O)(=O)C(C)C ; wanted: its GI50
50 to 500 nM

Looking for the measured GI50 of C=Cc1cnc(Nc2cc(CC)c(N3CCN(C)CC3)cc2OC)nc1Nc1ccc2nccnc2c1S(C)(=O)=O , can you help?
500 to 2500 nM

###

target: BaF3 cell lines stably transfected with kinase EGFR L858R/T790M (Homo sapiens, UniProt P00533, T790M/L858R, cells depend on it); assay: Growth inhibition of BaF3 cell line stably transfected with kinase EGFR L858R/T790M (MTS); assay type: cell-based; settings: 48 h, read-out: growth inhibitory activity IC50, L858R/T790M
Sequence (P00533 whole entry T790M/L858R): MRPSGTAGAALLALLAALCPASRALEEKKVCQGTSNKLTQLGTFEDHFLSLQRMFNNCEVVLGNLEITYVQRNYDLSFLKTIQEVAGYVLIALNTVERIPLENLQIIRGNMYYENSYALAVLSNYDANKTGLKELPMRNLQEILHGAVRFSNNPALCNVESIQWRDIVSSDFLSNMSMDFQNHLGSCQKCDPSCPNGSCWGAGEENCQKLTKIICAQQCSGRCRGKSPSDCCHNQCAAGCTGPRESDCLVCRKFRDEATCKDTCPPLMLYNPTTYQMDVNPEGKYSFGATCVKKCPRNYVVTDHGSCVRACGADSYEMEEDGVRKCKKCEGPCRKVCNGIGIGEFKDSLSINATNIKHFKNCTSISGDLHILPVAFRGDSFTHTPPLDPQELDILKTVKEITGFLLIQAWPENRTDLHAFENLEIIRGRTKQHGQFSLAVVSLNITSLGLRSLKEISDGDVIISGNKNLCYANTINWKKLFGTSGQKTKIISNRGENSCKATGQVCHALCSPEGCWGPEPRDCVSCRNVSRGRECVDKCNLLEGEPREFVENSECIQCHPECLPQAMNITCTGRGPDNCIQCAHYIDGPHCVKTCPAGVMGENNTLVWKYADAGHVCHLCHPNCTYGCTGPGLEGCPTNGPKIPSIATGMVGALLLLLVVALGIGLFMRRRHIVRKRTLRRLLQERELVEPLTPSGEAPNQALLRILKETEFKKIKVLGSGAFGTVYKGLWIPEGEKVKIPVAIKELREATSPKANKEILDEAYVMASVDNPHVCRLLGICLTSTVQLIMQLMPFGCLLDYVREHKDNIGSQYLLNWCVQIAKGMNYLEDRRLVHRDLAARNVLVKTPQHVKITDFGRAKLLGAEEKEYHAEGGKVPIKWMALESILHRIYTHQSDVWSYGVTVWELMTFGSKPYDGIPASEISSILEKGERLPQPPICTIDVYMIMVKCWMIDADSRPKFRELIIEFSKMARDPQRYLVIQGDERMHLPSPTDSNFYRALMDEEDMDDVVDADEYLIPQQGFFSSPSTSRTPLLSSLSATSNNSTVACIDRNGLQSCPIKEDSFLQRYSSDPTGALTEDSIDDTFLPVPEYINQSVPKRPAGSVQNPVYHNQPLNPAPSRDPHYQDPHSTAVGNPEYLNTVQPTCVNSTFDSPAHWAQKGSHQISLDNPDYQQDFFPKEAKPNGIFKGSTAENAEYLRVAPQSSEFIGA
valueType: GI50

Take a look at these entries with their results.
Returns the measured GI50 for the input compound. Input: C=Cc1cnc(Nc2cc(CC)c(N3CCC4(CC3)CC(N(C)C)C4)cc2OC)nc1Nc1ccc2nccnc2c1N(C)S(C)(=O)=O [II-55]
50 to 500 nM

Which measured GI50 value corresponds to C=Cc1cnc(Nc2cc(C3CC3)c(N3CCC(N4CCN(C)CC4)CC3)cc2OC)nc1Nc1ccc2nccnc2c1P(C)(C)=O [Compound I-17] ?
50 to 500 nM

GI50 for C=Cc1cnc(Nc2cc(C3CC3)c(N3CCC(N4CCN(C)CC4)CC3)cc2OC)nc1Nc1ccc2nccnc2c1N(C)S(C)(=O)=O [II-18] ?
50 to 500 nM

More entries:
Requested field: GI50. Item: CCc1cc(Nc2ncc(C3=CCCC3)c(Nc3ccc4nccnc4c3N(C)S(C)(=O)=O)n2)c(OC)cc1N1CCC(N2CCN(C)CC2)CC1 [II-27]
500 to 2500 nM

Query: GI50; subject: C=Cc1cnc(Nc2cc(CC)c(N3CCC(N4CCNCC4)CC3)cc2OC)nc1Nc1ccc2nccnc2c1N(C)S(C)(=O)=O [II-52]
≤ 50 nM

Entry under review: CCc1cc(Nc2ncc(C3=CCCC3)c(Nc3ccc4nccnc4c3P(C)(C)=O)n2)c(OC)cc1N1CCC(N2CCN(C)CC2)CC1 [Compound I-13] . Reported GI50?
50 to 500 nM
